These data points were gathered from ChEMBL document CHEMBL4808235.

Test Protocol: Metabolic stability in mouse liver microsomes assessed as parent compound remaining incubated for 10 mins in presence of NADPH
Format: ADME, Microsome
Assay Setup: read-out: Stabilty
Decision: remaining at 10 min beneath 60% gives Yes; remaining at 10 min meeting or exceeding 60% gives No.

Query Smiles | Group
CCCCc1nc(=O)c(S(=O)(=O)c2ccc(-n3ccccc3=O)cc2)c(O)n1-c1c(OC)cccc1OC | No
CCCCc1[nH]c(=O)c(S(=O)(=O)c2ccc(-c3ccncc3C)cc2)c(O)c1-c1c(OC)cccc1OC | Yes
CCCCc1nc(=O)c(S(=O)(=O)c2ccc(C3CC3)cc2)c(O)n1-c1c(OC)cccc1OC | No
CCCCc1[nH]c(=O)c(S(=O)(=O)c2ccc(-n3ccccc3=O)cc2)c(O)c1-c1c(OC)cccc1OC | No
CCCCc1nc(=O)c(S(=O)(=O)c2ccccc2)c(O)n1-c1c(OC)cccc1OC | No

// query remaining at 10 min strictly < 60% for this molecule? CCCCc1nc(=O)c(S(=O)(=O)c2ccc(-c3cccnc3OC)cc2)c(O)n1-c1c(OC)cccc1OC
// result No

// query remaining at 10 min strictly < 60% for this molecule? CCCCc1nc(=O)c(S(=O)(=O)c2ccc(C)cc2)c(O)n1-c1c(OC)cccc1OC
// result No
